biological target: Sigma non-opioid intracellular receptor 1 (Rattus norvegicus, UniProt Q9R0C9); experiment: Ki value determined against Sigma opioid receptor type 1 using [(+)-[3H]pentazocine at the Kd concentration 2 nM.
Sequence (Q9R0C9 whole entry): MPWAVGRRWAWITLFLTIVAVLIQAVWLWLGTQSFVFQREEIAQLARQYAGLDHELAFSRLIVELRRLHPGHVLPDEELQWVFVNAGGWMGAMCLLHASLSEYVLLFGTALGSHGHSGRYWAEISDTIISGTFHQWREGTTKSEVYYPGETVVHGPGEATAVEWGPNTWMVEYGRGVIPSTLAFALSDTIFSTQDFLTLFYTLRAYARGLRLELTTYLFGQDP
Could you please report measured Ki for the items listed next?
Form entry: value (nM) — number only.

I'd like to know its Ki. The compound in question is CC1C2Cc3ccc(O)cc3[C@@]1(C)CCN2CCCCCCC#N (some centres not stated) 16

Please look up its Ki: CC1C2Cc3ccc(O)cc3[C@@]1(C)CCN2CCCC#N (some centres not stated) 20

Given C#CCCN1CC[C@]2(C)c3cc(O)ccc3CC1C2C (some centres not stated) , state its recorded Ki. 110

What value of measured Ki is listed for C=CCN1CC[C@]2(C)c3cc(O)ccc3CC1C2C (some centres not stated) ? 300

Look up Ki for this compound: C=CCCCN1CC[C@]2(C)c3cc(O)ccc3CC1C2C (some centres not stated) 2.1

Reported Ki for CC1C2Cc3ccc(O)cc3[C@@]1(C)CCN2CCCCCC#N (some centres not stated) : what is it? 33

If you can, please state the reported Ki value of C#CCCCN1CC[C@]2(C)c3cc(O)ccc3CC1C2C (some centres not stated) . 18

Can you share its Ki? I mean this compound: CC1C2Cc3ccc(O)cc3[C@@]1(C)CCN2CCCCC#N (some centres not stated) 36

Recorded Ki for CC1C2Cc3ccc(O)cc3[C@@]1(C)CCN2CC#N (some centres not stated) , please? 11000

Bench note: what Ki did C=CCCCCN1CC[C@]2(C)c3cc(O)ccc3CC1C2C (some centres not stated) show? 1.1

Give its Ki value. Item: CC1C2Cc3ccc(O)cc3[C@@]1(C)CCN2CCC#N (some centres not stated) 250

# input compound: C=CCCN1CC[C@]2(C)c3cc(O)ccc3CC1C2C (some centres not stated) ; wanted: its Ki 15

* * *

assay: Tail-flick vs. morphine ED80(morphine sulfate substituted completely) was studied to determine selective in vivo agonist and antagonist activity.; format: functional
I'd appreciate it if you could supply ED50 values for the items below.
Express the result in mg/kg but write the number alone.

Value lookup for ED50; key = `C=CCCCN1CC[C@]2(C)c3cc(O)ccc3CC1[C@@H]2C` 6

Please report the recorded ED50 for `C#CCCCN1CC[C@]2(C)c3cc(O)ccc3CC1[C@@H]2C` . 2

For CC#CCN1CC[C@]2(C)c3cc(O)ccc3CC1[C@@H]2C (stereo in doubt; 12) , what is its reported ED50? 0.3

Look up ED50: `C=CCN1CC[C@]2(C)c3cc(O)ccc3CC1[C@@H]2C` 0.2

* * *

target: Sigma 2 receptor; experiment: Ki value determined against Sigma opioid receptor type 2 using [3H]DTG (5 nM) with 1 uM dextrallorphan to mask sigma-1 binding; parameters: species or system Mus musculus
attribute-measured: log10 of Ki (log10 of the value in nM)
Friendly reminder: values = log10 of Ki, unit nM.

Would you mind telling me what log10 of Ki value was observed for `C[C@H]1C2Cc3ccc(O)cc3[C@@]1(C)CCN2CCCCC#N` ? 3.45

For the molecule shown here, `C[C@H]1C2Cc3ccc(O)cc3[C@@]1(C)CCN2CCCCCCC#N` , give the reported log10 of Ki. 2.18

// log10 of Ki lookup, key: `C=CCCN1CC[C@]2(C)c3cc(O)ccc3CC1[C@@H]2C` 2.79

Param item = `C=CCCCCN1CC[C@]2(C)c3cc(O)ccc3CC1[C@@H]2C` ; retrieve measured log10 of Ki. 1.90

# lookup: log10 of Ki of `C[C@H]1C2Cc3ccc(O)cc3[C@@]1(C)CCN2CCCC#N` 3.92

What does the data say about its log10 of Ki? Entry: `C[C@H]1C2Cc3ccc(O)cc3[C@@]1(C)CCN2CC#N` 4.28

* * *

Please provide measured ED50 for the entries that follow.
molecular target: Opioid receptor (Mus musculus) (UniProt P42866+P32300+P33534); assay: Hot plate test was carried out for mouse injected sc and the antinociceptive activity was determined from the response; format: functional, organism-based
Sequence (P32300 whole entry, looked up): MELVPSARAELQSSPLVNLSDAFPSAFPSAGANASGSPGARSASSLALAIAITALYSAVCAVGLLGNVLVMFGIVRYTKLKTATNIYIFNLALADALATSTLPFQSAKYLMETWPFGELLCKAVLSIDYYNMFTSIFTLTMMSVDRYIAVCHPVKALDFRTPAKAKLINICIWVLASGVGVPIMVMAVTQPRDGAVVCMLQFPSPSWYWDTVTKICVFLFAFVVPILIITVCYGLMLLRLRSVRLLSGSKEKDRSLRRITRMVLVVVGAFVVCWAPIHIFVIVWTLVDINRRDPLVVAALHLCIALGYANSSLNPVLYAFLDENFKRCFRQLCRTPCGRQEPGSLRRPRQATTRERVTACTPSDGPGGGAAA
Sequence (P33534 whole entry, looked up): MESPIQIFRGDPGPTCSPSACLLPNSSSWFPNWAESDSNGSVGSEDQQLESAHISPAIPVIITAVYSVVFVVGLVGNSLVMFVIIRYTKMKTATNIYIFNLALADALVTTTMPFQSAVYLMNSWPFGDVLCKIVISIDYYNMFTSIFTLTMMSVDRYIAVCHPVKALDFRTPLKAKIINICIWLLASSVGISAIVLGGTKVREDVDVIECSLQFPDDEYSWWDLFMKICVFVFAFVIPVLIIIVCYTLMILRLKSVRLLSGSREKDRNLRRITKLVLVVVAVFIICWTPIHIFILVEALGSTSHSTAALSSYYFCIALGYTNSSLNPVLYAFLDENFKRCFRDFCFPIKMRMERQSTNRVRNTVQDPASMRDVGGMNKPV
Sequence (P42866 whole entry, looked up): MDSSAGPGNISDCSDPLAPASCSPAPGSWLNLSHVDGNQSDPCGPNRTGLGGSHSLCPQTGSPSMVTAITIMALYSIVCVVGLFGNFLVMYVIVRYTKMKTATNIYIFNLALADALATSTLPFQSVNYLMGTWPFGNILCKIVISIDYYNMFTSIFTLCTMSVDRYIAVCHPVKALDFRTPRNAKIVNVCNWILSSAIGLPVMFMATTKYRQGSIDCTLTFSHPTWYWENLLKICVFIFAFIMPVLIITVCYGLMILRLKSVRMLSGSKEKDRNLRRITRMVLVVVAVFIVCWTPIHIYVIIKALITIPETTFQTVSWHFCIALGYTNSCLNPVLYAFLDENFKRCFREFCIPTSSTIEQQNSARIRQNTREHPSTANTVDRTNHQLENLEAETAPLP
Express the result in mg/kg but write the number alone.

Would you mind telling me what ED50 value was observed for `C[C@H]1C2Cc3ccc(O)cc3[C@@]1(C)CCN2CCCC#N` ? 1

Fill in the blank: the reported ED50 of `C[C@H]1C2Cc3ccc(O)cc3[C@@]1(C)CCN2CCC#N` is ____. 0.1

Looking for the measured ED50 of `C#CCCN1CC[C@]2(C)c3cc(O)ccc3CC1[C@@H]2C` , can you help? 0.1

Request the reported ED50 associated with `C=CCCCCN1CC[C@]2(C)c3cc(O)ccc3CC1[C@@H]2C` 0.6

Fill in: ED50 of `C[C@H]1C2Cc3ccc(O)cc3[C@@]1(C)CCN2CC#N` is ___ 9

Which ED50 value belongs to `C=CCCN1CC[C@]2(C)c3cc(O)ccc3CC1[C@@H]2C` ? 0.8

* * *

The following molecules each carry a recorded Ki for Kappa-type opioid receptor (Mus musculus, UniProt P33534).
Please state the figure in nM; there is no need to write the unit.

Kindly state the measured Ki obtained for `C=CCCCCN1CC[C@]2(C)c3cc(O)ccc3CC1[C@@H]2C` with Kappa-type opioid receptor (Mus musculus, UniProt P33534). 5.8

Item CC1C2Cc3ccc(O)cc3[C@@]1(C)CCN2CCCCCC#N (stereo partly specified) with Kappa-type opioid receptor (Mus musculus, UniProt P33534) - Ki? 500

For the record CC1C2Cc3ccc(O)cc3[C@@]1(C)CCN2CCCC#N (stereo partly specified) , what value of Ki is listed for Kappa-type opioid receptor (Mus musculus, UniProt P33534)? 240

Request: Ki, test system Kappa-type opioid receptor (Mus musculus, UniProt P33534), entry `C[C@H]1C2Cc3ccc(O)cc3[C@@]1(C)CCN2CC#N` 70

Give Ki (Kappa-type opioid receptor (Mus musculus, UniProt P33534)) of the following molecule: `C=CCCCN1CC[C@]2(C)c3cc(O)ccc3CC1[C@@H]2C` 5.9

Can you look up Ki on Kappa-type opioid receptor (Mus musculus, UniProt P33534) for CC#CCN1CC[C@]2(C)c3cc(O)ccc3CC1[C@@H]2C (stereo in doubt; 12) ? 3.9

* * *

Assign ED50 to each entry below.
biological target: Opioid receptor (Mus musculus) (UniProt P42866+P32300+P33534); experiment: Using the PPQ (paraphenylquinone) assay selective opioid receptor agonist activity was established in mice; format: functional
Give the value in mg/kg but do not write mg/kg after it.

Entry `C[C@H]1C2Cc3ccc(O)cc3[C@@]1(C)CCN2CC#N` has what ED50? 1.5

For `C=CCN1CC[C@]2(C)c3cc(O)ccc3CC1[C@@H]2C` , what is its reported ED50? 0.1

Name the reported ED50 value associated with the compound `C#CCCN1CC[C@]2(C)c3cc(O)ccc3CC1[C@@H]2C` 0.04

# query: ED50 of entry `C[C@H]1C2Cc3ccc(O)cc3[C@@]1(C)CCN2CCCCCCC#N` 9

# get_value(readout='ED50', item= `C=CCCCCN1CC[C@]2(C)c3cc(O)ccc3CC1[C@@H]2C` ) 0.8

Item under review: `C=CCCN1CC[C@]2(C)c3cc(O)ccc3CC1[C@@H]2C` . Reported ED50? 0.3
